- Tested on: Human alphaherpesvirus 2
- MEASUREMENT NOTES: Antiviral activity against HSV-2 virus infected HEF cell lines.
- Format: functional
In this section we review reported MIC50 values for a set of molecules.
VALUE KIND: MIC50

INSERT INTO assay_data (molecule, measured_on, value_kind, result) VALUES
  ('CNC1(C23CC4CC(CC(C4)C2)C3)CCCC1', 'Human alphaherpesvirus 2', 'MIC50', '> 10 µg/mL'),
  ('C1CCC2(C1)CCCN2CC12CC3CC(CC(C3)C1)C2', 'Human alphaherpesvirus 2', 'MIC50', '> 40 µg/mL'),
  ('CCN1CCCC1C12CC3CC(CC(C3)C1)C2 (centres undefined)', 'Human alphaherpesvirus 2', 'MIC50', '> 100 µg/mL'),
  ('CC(C)(C)C1CCCN1CC12CC3CC(CC(C3)C1)C2 (centres undefined)', 'Human alphaherpesvirus 2', 'MIC50', '> 100 µg/mL'),
  ('NC1(C23CC4CC(CC(C4)C2)C3)CCCC1', 'Human alphaherpesvirus 2', 'MIC50', '> 10 µg/mL'),
  ('CC1(C)CCCN1CC12CC3CC(CC(C3)C1)C2', 'Human alphaherpesvirus 2', 'MIC50', '> 40 µg/mL'),
  ('CN1CCOCC12C1CC3CC(C1)CC2C3 (centres undefined)', 'Human alphaherpesvirus 2', 'MIC50', '> 400 µg/mL'),
  ('CCN1CCCCC12C1CC3CC(C1)CC2C3 (centres undefined)', 'Human alphaherpesvirus 2', 'MIC50', '> 200 µg/mL'),
  ('CN1CCCCC12C1CC3CC(C1)CC2C3 (centres undefined)', 'Human alphaherpesvirus 2', 'MIC50', '> 200 µg/mL'),
  ('CCCCN1CCCC1C12CC3CC(CC(C3)C1)C2 (centres undefined)', 'Human alphaherpesvirus 2', 'MIC50', '> 40 µg/mL'),
  ('C1CCC2(NC1)C1CC3CC(C1)CC2C3 (centres undefined)', 'Human alphaherpesvirus 2', 'MIC50', '> 200 µg/mL'),
  ('C1COCC2(N1)C1CC3CC(C1)CC2C3 (centres undefined)', 'Human alphaherpesvirus 2', 'MIC50', '> 200 µg/mL'),
  ('NC(=O)c1ncn([C@@H]2O[C@H](CO)[C@@H](O)[C@H]2O)n1 [RIBAVIRIN]', 'Human alphaherpesvirus 2', 'MIC50', '> 200 µg/mL'),
  ('C1CCC2(CC1)CCCN2CC12CC3CC(CC(C3)C1)C2', 'Human alphaherpesvirus 2', 'MIC50', '> 40 µg/mL'),
  ('Nc1nc2c(ncn2COC(CO)CO)c(=O)[nH]1 [GANCICLOVIR]', 'Human alphaherpesvirus 2', 'MIC50', '0.002 µg/mL'),
  ('CN(C)CC1CCCN1C12CC3CC(CC(C3)C1)C2 (centres undefined)', 'Human alphaherpesvirus 2', 'MIC50', '> 200 µg/mL'),
  ('C1CNC(C23CC4CC(CC(C4)C2)C3)C1 (centres undefined)', 'Human alphaherpesvirus 2', 'MIC50', '> 40 µg/mL'),
  ('CN1CCCC1C12CC3CC(CC(C3)C1)C2 (centres undefined)', 'Human alphaherpesvirus 2', 'MIC50', '> 100 µg/mL'),
  ('CN(C)C1(C23CC4CC(CC(C4)C2)C3)CCCC1', 'Human alphaherpesvirus 2', 'MIC50', '> 40 µg/mL');
